study-system: 抗HPV16E7蛋白单抗69A6
measurement-description: indirect competition ELISA, peptide at 10μmol/L competes with coated HPV16E7 whole protein for 69A6
metric: 抑制率
Remember to follow the number with its unit.

RAHYNIVTFCCKCDSTLR [重叠肽HPV16E7 49-66]; 16.3%
HVDIRTLEDLLMGTLGIV [重叠肽HPV16E7 73-90]; 93.5%
GTLGIVCPICSQKP [重叠肽HPV16E7 85-98]; 92%

Using the record for LCVQSTHVDIRTLEDLLM [重叠肽HPV16E7 67-84] , report its 抑制率.
91.6%
